What EC50 was measured for each of the following?
biological target: hMC3-R (Homo sapiens, UniProt P41968); construct: expressed in transfected cells; host or cells: CHO-K1; experiment: cyclic AMP bioassay (ECL) in CHO-K1 cells; format: cell-based; conditions: Table 9A/9B; read-out: EC50 hMC3-R
Sequence (P41968 whole entry): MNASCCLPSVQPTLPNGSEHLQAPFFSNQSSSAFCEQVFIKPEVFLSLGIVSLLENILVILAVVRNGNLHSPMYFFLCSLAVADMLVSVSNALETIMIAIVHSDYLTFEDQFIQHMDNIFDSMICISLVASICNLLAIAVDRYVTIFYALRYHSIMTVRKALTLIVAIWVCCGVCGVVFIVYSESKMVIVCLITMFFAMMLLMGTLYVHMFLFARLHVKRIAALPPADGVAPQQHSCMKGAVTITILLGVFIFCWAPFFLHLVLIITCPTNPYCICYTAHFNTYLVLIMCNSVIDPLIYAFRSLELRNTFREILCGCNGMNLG
Bridge positions count the residues as written; N and C are the ends. Square brackets hold non-standard residues; d marks the D form. Peptide text beside a SMILES is read from it. Bta = N[C@@H](Cc1csc2ccccc12)C(=O)O; Pen = CC(C)(S)[C@H](N)C(=O)O; Nle = CCCC[C@H](N)C(=O)O; GABA = NCCCC(=O)O; βAla = NCCC(=O)O
# do not omit the unit; it follows the number

[[record]]
compound = "CCCC[C@H](NC(C)=O)C(=O)N[C@H]1CSSC[C@@H](C(N)=O)NC(=O)[C@H](Cc2c[nH]c3ccccc23)NC(=O)[C@H](CCCNC(=N)N)NC(=O)[C@@H](Cc2ccccc2)NC(=O)[C@H](Cc2c[nH]cn2)NC(=O)[C@@H](CC2CCCCC2)NC1=O"
quantity_measured = "EC50"
recorded_value = "0.541 nM"


Provide EC50 values for the following items, in order.
1. CCCC[C@H](NC(C)=O)C(=O)N[C@H]1CC(=O)NCCCC[C@@H](C(N)=O)NC(=O)[C@H](Cc2csc3ccccc23)NC(=O)[C@H](CCCNC(=N)N)NC(=O)[C@@H](Cc2ccccc2)NC(=O)[C@H](Cc2c[nH]cn2)NC(=O)[C@@H](C)NC1=O (Ac-[Nle]D[dA]H[dF]R[Bta]K-NH2; lactam 2-8)
2. CCCC[C@H](NC(C)=O)C(=O)N[C@H]1CSSC(C)(C)[C@@H](C(N)=O)NC(=O)CCCNC(=O)[C@H](Cc2c[nH]c3ccccc23)NC(=O)[C@H](CCCNC(=N)N)NC(=O)[C@@H](Cc2ccccc2)NC(=O)[C@H](Cc2c[nH]cn2)NC1=O (Ac-[Nle]CH[dF]RW[GABA][Pen]-NH2; disulfide 2-8)
3. CCOc1ccc(C[C@H]2NC(=O)[C@H](Cc3c[nH]cn3)NC(=O)[C@@H](NC(=O)[C@H](N)Cc3ccccc3)CSSC[C@H](C(=O)N[C@H](C(N)=O)[C@@H](C)O)NC(=O)CCNC(=O)[C@H](Cc3c[nH]c4ccccc34)NC(=O)[C@H](CCCNC(=N)N)NC2=O)cc1 (H-[dF]CH[dY](Et)RW[βAla][dC]T-NH2; disulfide 2-8)

3.22 nM
0.24 nM
1.1 nM

* * *

Kindly state pEC50 for each of the entries shown.
molecular target: hMC3-R (Homo sapiens); construct: expressed in transfected cells; host or cells: CHO-K1; test: cyclic AMP bioassay (ECL) in CHO-K1 cells; assay type: cell-based
Answers are plain numbers, as −log10 of the molar value.

Previously resolved entries follow.
[[record]]
smiles_notation = "C[C@H]1NC(=O)[C@@H](NC(=O)CN2C(=O)N[C@@H](CCCNC(=N)N)C2=O)CSSC[C@@H](C(N)=O)NC(=O)[C@H](Cc2c[nH]c3ccccc23)NC(=O)[C@H](CCCNC(=N)N)NC(=O)[C@@H](Cc2ccc3ccccc3c2)NC(=O)[C@H](Cc2cnc[nH]2)NC1=O"
recorded_value = 7.88

[[record]]
smiles_notation = "CC(=O)N[C@H](CCCNC(=N)N)C(=O)N[C@H]1CSSC(C)(C)[C@@H](C(N)=O)NC(=O)[C@H](Cc2c[nH]c3ccccc23)NC(=O)[C@H](CCCNC(=N)N)NC(=O)[C@@H](Cc2ccccc2)NC(=O)[C@H](Cc2c[nH]cn2)NC(=O)[C@@H](C)NC1=O"
recorded_value = 7.98


Please give pEC50, item by item, for the list that follows.
1. CC[C@H](C)[C@@H]1NC(=O)N([C@H]2CSSC[C@@H](C(N)=O)NC(=O)[C@H](Cc3c[nH]c4ccccc34)NC(=O)[C@H](CCCNC(=N)N)NC(=O)[C@@H](Cc3ccccc3)NC(=O)[C@H](Cc3cnc[nH]3)NC(=O)[C@@H](C)NC2=O)C1=O
2. CC(=O)N[C@@H](CCCNC(=N)N)C(=O)N[C@H]1CSSC(C)(C)[C@@H](C(N)=O)NC(=O)[C@H](Cc2c[nH]c3ccccc23)NC(=O)[C@H](CCCNC(=N)N)NC(=O)[C@@H](Cc2ccccc2)NC(=O)[C@H](Cc2c[nH]cn2)NC(=O)[C@@H](C)NC1=O
3. CCCC[C@@H](C(=O)N[C@H]1CSSC[C@@H](C(N)=O)NC(=O)[C@H](Cc2c[nH]c3ccccc23)NC(=O)[C@H](CCCNC(=N)N)NC(=O)[C@@H](Cc2ccccc2)NC(=O)[C@H](Cc2cnc[nH]2)NC(=O)[C@@H](C)NC1=O)N1C(=O)N[C@@H](CC(C)C)C1=O

1: 8.07; 2: 7.88; 3: 8.01
